# test.summary: Toxicity liver stage against HepG2, at 10uM
# Type: cell-based
# Parameters: test concentration 10 uM, cell line HepG2-A16-CD81EGFP
# settings: human, HepG2-A16-CD81EGFP cells; read-out: INHIBITION
measurement.type: cytotoxicity at 10 µM (%)

compound: O=C(c1cnc(NCc2sccc2Br)c(Cl)c1)N1CCCCC1
result.value: 6.36

compound: COc1ccc(Cl)cc1CS(=O)(=O)CC(=O)NC(C)CCC(C)C (stereo unspecified)
result.value: 11

compound: CC(C)OCc1nn(CC2CC2)c2c1CN(Cc1ccco1)CC2
result.value: -15.4

compound: CC(C)OCCN(C)C(C)c1cccc(S(N)(=O)=O)c1 (stereo unspecified)
result.value: -8.6

compound: CCn1nc(CC(C)C)cc1C(=O)NCCS(=O)(=O)N(C)C
result.value: 11.2

compound: Cc1ccc(C(=O)N2C[C@H]3CCC[C@@]3(COc3ccccn3)C2)nc1
result.value: -2.23
